# targetDesc: Jak2 (a.a. 828-1132) (Homo sapiens, UniProt O60674)
# Construct: Jak2 (a.a. 828-1132); His tag (N); made in house; host or cells: insect cells (baculovirus)
# Sequence (O60674 828-1132): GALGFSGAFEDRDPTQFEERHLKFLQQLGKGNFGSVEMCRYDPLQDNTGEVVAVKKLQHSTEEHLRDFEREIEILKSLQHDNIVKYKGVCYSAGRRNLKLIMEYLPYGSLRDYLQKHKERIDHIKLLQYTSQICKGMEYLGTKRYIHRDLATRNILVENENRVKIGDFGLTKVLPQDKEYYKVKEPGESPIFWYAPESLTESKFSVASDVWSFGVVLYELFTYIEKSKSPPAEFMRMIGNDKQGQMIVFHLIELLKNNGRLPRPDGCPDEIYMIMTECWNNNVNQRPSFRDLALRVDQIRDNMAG
# methodNotes: In vitro JAK kinase assay (HTRF, phosphorylation of biotinylated peptide), JAK2
# Type: biochemical
# testConditions: 1 mM ATP; Examples 92-162; read-out: JAK2 IC50 (nM) @ 1 mM ATP
This section presents compounds with their documented IC50 values.

[
  {
    "compound": "N#CCC(CN1CCCN(S(=O)(=O)c2ccccc2OC(F)(F)F)CC1)n1cc(-c2ncnc3[nH]ccc23)cn1 (centres unmarked) [Example 110]",
    "IC50": "> 100 nM"
  },
  {
    "compound": "CC(CN1CCN(S(=O)(=O)c2cccc(F)c2)CC1)n1cc(-c2ncnc3[nH]ccc23)cn1 (centres unmarked) [Example 96, bis(trifluoroacetate)]",
    "IC50": "> 100 nM"
  },
  {
    "compound": "Cc1cc(S(=O)(=O)N2CCN(CC(C)n3cc(-c4ncnc5[nH]ccc45)cn3)CC2)c(C(F)(F)F)o1 (centres unmarked) [Example 92]",
    "IC50": "> 100 nM"
  },
  {
    "compound": "CCC(CN1CCN(S(=O)(=O)c2cccc(C#N)c2)CC1)n1cc(-c2ncnc3[nH]ccc23)cn1 (centres unmarked) [Example 139]",
    "IC50": "> 100 nM"
  },
  {
    "compound": "CCC(CN1CCN(S(=O)(=O)c2ccn(C)n2)CC1)n1cc(-c2ncnc3[nH]ccc23)cn1 (centres unmarked) [Example 115]",
    "IC50": "20 to 50 nM"
  }
]

Q: Reported IC50 for Jak2 (a.a. 828-1132) (Homo sapiens, UniProt O60674), given CCC(CN1CCN(S(=O)(=O)c2ccc(Br)s2)CC1)n1cc(-c2ncnc3[nH]ccc23)cn1 (centres unmarked) [Example 145] ?
Ans: 20 to 50 nM

Q: Request: CCC(CN1CCN(S(=O)(=O)c2cc(F)ccc2F)CC1)n1cc(-c2ncnc3[nH]ccc23)cn1 (centres unmarked) [Example 141]
Ans: 50 to 100 nM

Q: Next compound up: COc1ccc(Cl)cc1S(=O)(=O)N1CCCN(CC(CC#N)n2cc(-c3ncnc4[nH]ccc34)cn2)CC1 (centres unmarked) [Example 112]
Ans: 20 to 50 nM

Q: Item: N#CCC(CN1CCN(C(=O)c2ccc(C#N)cc2F)CC1C(F)F)n1cc(-c2ncnc3[nH]ccc23)cn1 (single isomer, unassigned) [Example 159—peak 3]
Ans: 20 to 50 nM

Q: For CCC(CN1CCN(S(=O)(=O)c2ccccc2C(F)(F)F)CC1)n1cc(-c2ncnc3[nH]ccc23)cn1 (centres unmarked) [Example 130] then?
Ans: 50 to 100 nM

Q: Please give the result for N#CCC(CN1CCCN(C(=O)c2ccc(F)cc2F)CC1)n1cc(-c2ncnc3[nH]ccc23)cn1 (centres unmarked) [Example 99] too.
Ans: 50 to 100 nM

Q: Now try CCC(CN1CCN(C(=O)c2ccc(F)cc2OC)CC1)n1cc(-c2ncnc3[nH]ccc23)cn1 (centres unmarked) [Example 125] .
Ans: > 100 nM

Q: Next up: CCC(CN1CCN(S(=O)(=O)c2ccc(C#N)cc2)CC1)n1cc(-c2ncnc3[nH]ccc23)cn1 (centres unmarked) [Example 129]
Ans: 50 to 100 nM

Q: Another compound to look at: C[C@@H]1CN(CC(CC#N)n2cc(-c3ncnc4[nH]ccc34)cn2)CCN1C(=O)c1ccc(C#N)cc1F (mixture of isomers) [Example 161]
Ans: > 100 nM
